# test.system: JAK3 (Homo sapiens)
# Sequence (P52333 1-1124): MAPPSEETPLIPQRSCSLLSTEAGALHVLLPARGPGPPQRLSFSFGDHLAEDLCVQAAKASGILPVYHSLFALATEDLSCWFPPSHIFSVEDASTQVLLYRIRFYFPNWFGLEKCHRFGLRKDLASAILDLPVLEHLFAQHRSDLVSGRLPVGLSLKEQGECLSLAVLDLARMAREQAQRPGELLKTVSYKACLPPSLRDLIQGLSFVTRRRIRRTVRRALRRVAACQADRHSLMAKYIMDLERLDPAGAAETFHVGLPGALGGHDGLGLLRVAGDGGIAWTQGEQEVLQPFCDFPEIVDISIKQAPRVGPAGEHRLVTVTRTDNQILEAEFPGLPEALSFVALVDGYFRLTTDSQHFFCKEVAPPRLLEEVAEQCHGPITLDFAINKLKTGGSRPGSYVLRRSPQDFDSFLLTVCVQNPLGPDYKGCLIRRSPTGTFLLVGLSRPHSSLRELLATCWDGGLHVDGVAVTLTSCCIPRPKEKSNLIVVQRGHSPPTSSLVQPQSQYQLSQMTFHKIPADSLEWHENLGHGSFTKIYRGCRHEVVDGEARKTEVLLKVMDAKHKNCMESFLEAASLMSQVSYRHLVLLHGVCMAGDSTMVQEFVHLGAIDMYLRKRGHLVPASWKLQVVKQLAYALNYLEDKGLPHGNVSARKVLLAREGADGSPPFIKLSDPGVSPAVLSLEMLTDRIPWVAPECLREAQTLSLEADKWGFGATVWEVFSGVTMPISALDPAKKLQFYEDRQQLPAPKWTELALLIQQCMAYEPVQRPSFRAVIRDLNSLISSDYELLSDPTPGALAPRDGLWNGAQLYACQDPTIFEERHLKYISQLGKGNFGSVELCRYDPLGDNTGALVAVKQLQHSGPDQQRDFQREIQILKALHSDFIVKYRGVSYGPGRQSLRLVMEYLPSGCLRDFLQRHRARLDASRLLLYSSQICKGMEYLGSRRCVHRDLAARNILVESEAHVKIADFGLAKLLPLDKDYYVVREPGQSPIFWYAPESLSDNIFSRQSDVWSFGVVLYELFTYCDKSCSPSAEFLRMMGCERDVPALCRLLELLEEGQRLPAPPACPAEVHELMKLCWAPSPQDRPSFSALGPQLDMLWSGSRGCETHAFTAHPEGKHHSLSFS
# assay.info: JAK3 inhibition assay (33P incorporation into poly(Glu)4Tyr)
# Format: biochemical
# protocol.conditions: Table 6; enzyme inhibition data (Ki)
pKi: −log10 of the molar value.
measure: pKi

Recorded pKi, per entry:
>>> observed_result("CCCN(CC(F)(F)F)C(=O)c1csc(-c2ccnc3[nH]ccc23)n1")
"> 6.30"
>>> observed_result("O=C(c1cc(-c2c(F)cnc3[nH]ccc23)c[nH]1)N(CCC(F)(F)F)Cc1ccccc1")
"> 6.30"
>>> observed_result("CC(C)(C)OCc1ccccc1-c1ccnc2[nH]ccc12")
"< 5.30"
>>> observed_result("N#CCC(=O)N1CC[C@@H](Nc2c(Cl)cnc3[nH]ccc23)C1")
"> 6.30"
>>> observed_result("CC1CC[C@@H](C)N1C(=O)c1csc(-c2ccnc3[nH]ccc23)n1 (stereo partly drawn)")
"> 6.30"
>>> observed_result("CCN(Cc1ccccc1)C(=O)c1cc(-c2c(F)cnc3[nH]ccc23)c[nH]1")
"> 6.30"
>>> observed_result("CCC(CC)NC(=O)c1cc(-c2ccnc3[nH]ccc23)c[nH]1")
"> 6.30"
>>> observed_result("N#CCCN(CC(F)(F)F)C(=O)c1csc(-c2ccnc3[nH]ccc23)n1")
"> 6.30"
>>> observed_result("C[C@@H]1CC[C@@H](C)N1C(=O)c1csc(-c2ccnc3[nH]ccc23)n1")
"> 6.30"
>>> observed_result("CCN(CCO)C(=O)c1cc(-c2c(Cl)cnc3[nH]ccc23)c[nH]1")
"> 6.30"

Input: Bench note: what pKi did O=C(c1csc(-c2ccnc3[nH]ccc23)n1)N1CCC(CO)CC1 show?
Output: 5.30 to 6.30

Input: May I ask what pKi has been recorded for CN(CCC#N)C(=O)c1cc(-c2ccnc3[nH]ccc23)c[nH]1 ?
Output: > 6.30

Input: Fill in the blank: the reported pKi of CS(=O)(=O)N1CCCC(Nc2c(Cl)cnc3[nH]ccc23)C1 (stereo not drawn) is ____.
Output: > 6.30

Input: Param item = CCOc1ccccc1-c1ccnc2[nH]ccc12 ; retrieve measured pKi.
Output: 5.30 to 6.30

Input: Which measured pKi value corresponds to O=C1NCCCC[C@@H]1Nc1c(Cl)cnc2[nH]ccc12 ?
Output: > 6.30

The reported measurements were obtained from patent US8921376B2.
